Assay target: Solute carrier organic anion transporter family member 1B1 (Homo sapiens, UniProt Q9Y6L6)
Sequence (Q9Y6L6 whole entry): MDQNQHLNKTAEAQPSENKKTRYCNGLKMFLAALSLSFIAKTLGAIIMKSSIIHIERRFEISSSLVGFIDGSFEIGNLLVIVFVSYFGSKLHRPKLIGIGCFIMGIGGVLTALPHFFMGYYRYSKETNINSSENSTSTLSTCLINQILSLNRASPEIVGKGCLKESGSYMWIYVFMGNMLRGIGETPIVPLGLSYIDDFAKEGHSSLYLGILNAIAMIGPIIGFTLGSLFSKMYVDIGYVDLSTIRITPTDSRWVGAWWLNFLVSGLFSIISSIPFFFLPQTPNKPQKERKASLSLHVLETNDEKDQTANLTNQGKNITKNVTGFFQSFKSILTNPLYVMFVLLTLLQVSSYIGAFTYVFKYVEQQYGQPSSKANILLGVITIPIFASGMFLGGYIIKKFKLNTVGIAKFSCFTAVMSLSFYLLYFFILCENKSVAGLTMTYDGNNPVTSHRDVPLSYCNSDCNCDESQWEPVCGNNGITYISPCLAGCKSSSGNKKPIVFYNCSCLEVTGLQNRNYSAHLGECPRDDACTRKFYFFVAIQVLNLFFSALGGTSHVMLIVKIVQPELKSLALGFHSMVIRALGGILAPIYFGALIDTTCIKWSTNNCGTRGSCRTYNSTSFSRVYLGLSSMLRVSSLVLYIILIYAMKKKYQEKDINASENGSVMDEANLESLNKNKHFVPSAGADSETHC
Measurement context: chinese hamster, cho, 10 µM
Measured parameter: residual activity (%)
Numbers only, in %.

Please review the following examples before continuing.
>>> test_value("COC(=O)Nc1nc2ccc(C(=O)c3ccccc3)cc2[nH]1")
159.5
>>> test_value("O=C(/C=C/C=C/c1ccc2c(c1)OCO2)N1CCCCC1")
186.2

Lab note: each molecule below needs its residual activity filled in.
1. C=C(C)[C@@H]1CC=C(CO)CC1
2. NC(=O)c1ccc[n+]([C@@H]2O[C@H](COP(=O)([O-])OP(=O)(O)OC[C@H]3O[C@@H](n4cnc5c(N)ncnc54)[C@H](OP(=O)(O)O)[C@@H]3O)[C@@H](O)[C@H]2O)c1
3. CC[C@H]1/C=C/C=C/C[C@@H](C)[C@H](O)[C@@](C)(O)C(=O)[C@@H](C)[C@H](O)[C@@H](C)C(=O)[C@@H](C)[C@H](O)[C@@H](C)/C=C/C(=O)O[C@@H]2[C@H](C)[C@H](CC1)O[C@]1(CC[C@H](C)[C@H](C[C@@H](C)O)O1)[C@H]2C

Completion:
1. 84.39
2. 190
3. 11.28

Lab note: each molecule below needs its residual activity filled in.
1. OCC(O)C(O)C(O)C(O)C(O)CO (configuration not stated)
2. N[C@H](C(=O)O)[C@@H]1CC(Cl)=NO1

Completion:
1: 60.19; 2: 137.7
